Attribution: patent US5686486A

biological target: HIV-1 protease (Human immunodeficiency virus type 1 group M subtype B); assay: biochemical; settings: dose 10.000 uM; read-out: HIV-1 Protease % Inhib
readout: inhibition at 10 µM (%)

Guide cases for inhibition at 10 µM, answers given:
O=c1oc2c(c(O)c1C(c1ccccc1)C1CC1)CCCCC2CC1CCCOC1 (centres unmarked) | 90
COCCC1CCCCc2c1oc(=O)c(C(c1ccccc1)C1CC1)c2O (centres unmarked) | 97.7
CCNC(=S)Nc1cccc(C(c2c(O)c3c(oc2=O)CCCCCC3)C2CC2)c1 (centres unmarked) | 86.1

(I) CCC(c1cccc(NC(=O)OCc2ccccc2)c1)c1c(O)c2c(oc1=O)CCCCCC2 (centres unmarked)
(II) CC(O)CC1CCCCc2c1oc(=O)c(C(c1ccccc1)C1CC1)c2O (centres unmarked)
Query: Lower value of inhibition at 10 µM belongs to which: I or II ? Answer = label.
Response: I
(I: 64.2%, II: 102%)

====

biological target: HIV-1 protease (Human immunodeficiency virus type 1 group M subtype B, UniProt P04585); test: biochemical; settings: read-out: HIV-1 Protease % Inhib, dose 3.300 uM
# reported inhibition at 3.3 µM; entries follow
Just the number please, in %, no unit attached.

Guide cases for inhibition at 3.3 µM, answers given:
O=c1oc2c(c(O)c1C(c1cccc(NS(=O)(=O)c3ccc(Cl)c(Cl)c3)c1)C1CC1)CCCCCC2 (stereo not shown) | 114
Nc1ccc(S(=O)(=O)Nc2cccc(C(c3c(O)c4c(oc3=O)CCCCCC4)C3CC3)c2)cc1 (stereo not shown) | 108
O=c1oc2c(c(O)c1C(c1ccccc1)c1ccccc1)CCCCCC2 | 85.3
O=C(NCc1ccc(C(c2c(O)c3c(oc2=O)CCCCCC3)C2CC2)o1)OCc1ccccc1 (stereo not shown) | 96.5
O=c1oc2c(c(O)c1C(c1cccc(NS(=O)(=O)c3ccc(I)cc3)c1)C1CC1)CCCCCC2 (stereo not shown) | 102

Query: For HIV-1 protease (Human immunodeficiency virus type 1 group M subtype B, UniProt P04585), provide inhibition at 3.3 µM of O=C(CO)Nc1cccc(S(=O)(=O)Nc2cccc(C(c3c(O)c4c(oc3=O)CCCCCC4)C3CC3)c2)c1 (stereo not shown) please.
Response: 103

Query: For HIV-1 protease (Human immunodeficiency virus type 1 group M subtype B, UniProt P04585), provide inhibition at 3.3 µM of CC(C)CCC1CCCCc2c1oc(=O)c(C(c1ccccc1)C1CC1)c2O (stereo not shown) please.
Response: 86

====

target: HIV-1 protease (Human immunodeficiency virus type 1 group M subtype B); assay: biochemical; settings: read-out: HIV-1 Protease % Inhib, dose 3.300 uM
# reported inhibition at 3.3 µM; entries follow
Just the number please, in %, no unit attached.

Guide cases for inhibition at 3.3 µM, answers given:
O=c1oc2c(c(O)c1C(c1cccc(NS(=O)(=O)c3cc(Cl)cc(Cl)c3)c1)C1CC1)CCCCCC2 (centres unmarked) [Example 288] | 92.9
O=c1oc2c(c(O)c1C(c1cccc(NS(=O)(=O)c3cccnc3)c1)C1CC1)CCCCCC2 (centres unmarked) [Example 314] | 109
Cc1c(Cl)cccc1S(=O)(=O)Nc1cccc(C(c2c(O)c3c(oc2=O)CCCCCC3)C2CC2)c1 (centres unmarked) [Example 311] | 92
O=c1oc2c(c(O)c1C1(c3ccccc3)CCC1)CCCCCC2 [Example 483] | 85.2

Query: Field request: inhibition at 3.3 µM | item: O=C(CCn1ccc2ccccc21)Nc1cccc(C(c2c(O)c3c(oc2=O)CCCCC3)C2CC2)c1 (centres unmarked) [Example 215]
Response: 97.9

Query: Field request: inhibition at 3.3 µM | item: COC(=O)c1cccc(S(=O)(=O)Nc2cccc(C(c3c(O)c4c(oc3=O)CCCCCC4)C3CC3)c2)c1 (centres unmarked) [Example 354]
Response: 100

Query: Field request: inhibition at 3.3 µM | item: CC(C)C(c1cccc(NS(=O)(=O)c2ccc(F)cc2)c1)c1c(O)c2c(oc1=O)CCCCCC2 (centres unmarked) [Example 418]
Response: 110

Query: Field request: inhibition at 3.3 µM | item: CC(C)CC(c1cccc(NS(=O)(=O)c2cn(C)cn2)c1)c1c(O)c2c(oc1=O)CCCCCC2 (centres unmarked) [Example 427]
Response: 90

====

molecular target: HIV-1 protease (Human immunodeficiency virus type 1 group M subtype B); assay: biochemical; settings: read-out: HIV-1 Protease % Inhib, dose 3.300 uM
# reported inhibition at 3.3 µM; entries follow
Just the number please, in %, no unit attached.

O=c1oc2c(c(O)c1C(c1cccc(NS(=O)(=O)c3ccccc3F)c1)C1CC1)CCCCCC2 (stereo not shown) [Example 281] | 109
O=c1oc2c(c(O)c1C(c1ccccc1)C1CC1)CCCCC2C(O)C1CC1 (stereo not shown) [Example 195] | 90.8
O=c1oc2c(c(O)c1C(c1cccc(NS(=O)(=O)c3ccc(F)cc3)c1)C1CC1)CCCCCC2 (stereo not shown) [Example 268] | 97.6
O=c1oc2c(c(O)c1C(c1cccc(NS(=O)(=O)c3ccccc3C(F)(F)F)c1)C1CC1)CCCCCC2 (stereo not shown) [Example 286] | 92.3
O=c1oc2c(c(O)c1C(c1cccc(NS(=O)(=O)c3cccc(S(=O)(=O)NCc4ccccc4)c3)c1)C1CC1)CCCCCC2 (stereo not shown) [Example 412] | 102
O=c1oc2c(c(O)c1[C@@H](c1cccc(NS(=O)(=O)c3cccc4cccnc34)c1)C1CC1)CCCCCC2 [Example 260] | 106

Then this compound:
Query: For HIV-1 protease (Human immunodeficiency virus type 1 group M subtype B), provide inhibition at 3.3 µM of O=c1oc2c(c(O)c1C(c1cccc(NS(=O)(=O)c3ccccc3Cl)c1)C1CC1)CCCCCC2 (stereo not shown) [Example 293] please.
Response: 107

====

molecular target: HIV-1 protease (Human immunodeficiency virus type 1 group M subtype B, UniProt P04585); assay: biochemical; conditions: read-out: HIV-1 Protease % Inhib, dose 1.100 uM
readout: inhibition at 1.1 µM (%)
Just the number please, in %, no unit attached.

Guide cases for inhibition at 1.1 µM, answers given:
O=c1oc2c(c(O)c1C(c1cccc(NS(=O)(=O)Cc3ccccc3)c1)C1CC1)CCCCCC2 (stereo not shown) | 100
O=c1oc2c(c(O)c1C(c1ccc(CO)s1)C1CC1)CCCCCC2 (stereo not shown) | 79.2
O=c1oc2c(c(O)c1C1(c3ccccc3)CCC1)CCCCCC2 | 73.2
O=c1oc2c(c(O)c1C(c1cccc(NS(=O)(=O)C=Cc3ccccc3)c1)C1CC1)CCCCCC2 (stereo not shown) | 98.2
O=c1oc2c(c(O)c1C(c1cccc(NS(=O)(=O)c3ccc(NS(=O)(=O)c4ccccc4)cc3)c1)C1CC1)CCCCCC2 (stereo not shown) | 69
O=c1oc2c(c(O)c1C(c1cccc(NS(=O)(=O)c3ccc(Cl)s3)c1)C1CC1)CCCCCC2 (stereo not shown) | 102
O=c1oc2c(c(O)c1C(c1cccc(NS(=O)(=O)c3c(F)c(F)c(F)c(F)c3F)c1)C1CC1)CCCCCC2 (stereo not shown) | 94.7
CC(C)(C)OC(=O)NCCCC(=O)Nc1cccc(C(c2c(O)c3c(oc2=O)CCCCCC3)C2CC2)c1 (stereo not shown) | 80
O=c1oc2c(c(O)c1C(c1cccc(NS(=O)(=O)c3ccc(Cl)cc3)c1)C1CC1)CCCCCC2 (stereo not shown) | 99.8
O=c1oc2c(c(O)c1C(c1cccc(NS(=O)(=O)c3cc(Cl)sc3Cl)c1)C1CC1)CCCCCC2 (stereo not shown) | 85.9

Query: Field request: inhibition at 1.1 µM | item: CCC1CCCCCc2c1oc(=O)c(C(c1ccccc1)C1CC1)c2O (stereo not shown)
Response: 112

Query: Field request: inhibition at 1.1 µM | item: CC(C)CC1CCCCc2c1oc(=O)c(C(c1ccccc1)C1CC1)c2O (stereo not shown)
Response: 85.5

Query: Field request: inhibition at 1.1 µM | item: CCCC(c1cccc(N)c1)c1c(O)c2c(oc1=O)CCCCCC2 (stereo not shown)
Response: 75.3

Query: Field request: inhibition at 1.1 µM | item: O=c1oc2c(c(O)c1C(c1cccc(NS(=O)(=O)CCCI)c1)C1CC1)CCCCCC2 (stereo not shown) [Example 365C]
Response: 102

Query: Field request: inhibition at 1.1 µM | item: O=c1oc2c(c(O)c1C(c1cccc(NS(=O)(=O)c3ccccc3F)c1)C1CC1)CCCCCC2 (stereo not shown)
Response: 99.3

Query: Field request: inhibition at 1.1 µM | item: CCC(=O)C1CCCCCc2c1oc(=O)c(C(c1ccccc1)C1CC1)c2O (stereo not shown)
Response: 75

====

# reported inhibition at 3.3 µM; entries follow
target: UniProtKB P04585; assay: biochemical; conditions: read-out: HIV-1 Protease % Inhib, dose 3.300 uM
Just the number please, in %, no unit attached.

Guide cases for inhibition at 3.3 µM, answers given:
CCCC1CCCCCc2c1oc(=O)c([C@H](c1ccccc1)C1CC1)c2O (mixture of isomers) [Example 235] | 105
CCCC(=O)Nc1cccc(C(c2c(O)c3c(oc2=O)CCCCCC3)C2CC2)c1 (stereo not drawn) [Example 209] | 96
CC(C)C(c1cccc(NS(=O)(=O)c2cn(C)cn2)c1)c1c(O)c2c(oc1=O)CCCCCC2 (stereo not drawn) [Example 374] | 125
Cc1ccc(S(=O)(=O)n2cncc2C[C@H](NC(=O)OC(C)(C)C)C(=O)Nc2cccc(C(c3c(O)c4c(oc3=O)CCCCCC4)C3CC3)c2)cc1 (stereo partly drawn) [Example 199] | 106
O=C(Nc1cccc(C(c2c(O)c3c(oc2=O)CCCCCC3)C2CC2)c1)c1ccc(F)cc1 (stereo not drawn) [Example 210] | 77.6

Query: For UniProtKB P04585, provide inhibition at 3.3 µM of CCCC(c1cccc(NS(=O)(=O)c2cn(C)cn2)c1)c1c(O)c2c(oc1=O)CCCCCC2 (stereo not drawn) [Example 431] please.
Response: 112

Query: For UniProtKB P04585, provide inhibition at 3.3 µM of Nc1cccc(S(=O)(=O)Nc2cccc(C(c3c(O)c4c(oc3=O)CCCCCC4)C3CC3)c2)c1 (stereo not drawn) [Example 353 (First Title Compound)] please.
Response: 97.3

Query: For UniProtKB P04585, provide inhibition at 3.3 µM of O=C(Nc1cccc(C(c2c(O)c3c(oc2=O)CCCCCC3)C2CC2)c1)Oc1ccccc1 (stereo not drawn) [Example 225] please.
Response: 47

Query: For UniProtKB P04585, provide inhibition at 3.3 µM of O=c1oc2c(c(O)c1C(c1cccc(NS(=O)(=O)CCCI)c1)C1CC1)CCCCCC2 (stereo not drawn) [Example 365C] please.
Response: 71.5
